Would you kindly list T/C for each of these compounds?
- Test system: L1210 leukemia ip in BDF1 mice, survival T/C
- ASSAY_EXPLANATION: NCI In Vivo Anticancer Drug Screen. Data for tumor model L1210 Leukemia (intraperitoneal) in B6D2F1 (BDF1) mice
- DETAILS: endpoint: mean survival time; dose: 100.0 mg/kg/injection; schedule: Q01DX001 (ip); vehicle: other; higher = longer survival
Toxic doses and inconclusive results are not listed.

stdin: Recorded T/C for COc1ccc(C(=O)Nc2cc(Cl)ccc2OC)cc1 with L1210 leukemia ip in BDF1 mice, survival T/C, please?
stdout: 101 % of control

stdin: Recorded T/C for Nc1ccc(-c2ccc(N)c(Oc3ccccc3)c2)cc1Oc1ccccc1 with L1210 leukemia ip in BDF1 mice, survival T/C, please?
stdout: 92 % of control

stdin: Recorded T/C for c1cc[c]2c(c1)Oc1cccc[c]1[Sn]21[c]2ccccc2Oc2cccc[c]21 with L1210 leukemia ip in BDF1 mice, survival T/C, please?
stdout: 91 % of control

stdin: Recorded T/C for CCCCCCCCCCCCCCCCOC(=O)Cl with L1210 leukemia ip in BDF1 mice, survival T/C, please?
stdout: 98 % of control

stdin: Recorded T/C for O=C(Cl)c1cccc2c([N+](=O)[O-])cccc12 with L1210 leukemia ip in BDF1 mice, survival T/C, please?
stdout: 97 % of control
